- tested.on: human Smo (Homo sapiens (Human), UniProt Q99835)
- Sequence (Q99835 181-787): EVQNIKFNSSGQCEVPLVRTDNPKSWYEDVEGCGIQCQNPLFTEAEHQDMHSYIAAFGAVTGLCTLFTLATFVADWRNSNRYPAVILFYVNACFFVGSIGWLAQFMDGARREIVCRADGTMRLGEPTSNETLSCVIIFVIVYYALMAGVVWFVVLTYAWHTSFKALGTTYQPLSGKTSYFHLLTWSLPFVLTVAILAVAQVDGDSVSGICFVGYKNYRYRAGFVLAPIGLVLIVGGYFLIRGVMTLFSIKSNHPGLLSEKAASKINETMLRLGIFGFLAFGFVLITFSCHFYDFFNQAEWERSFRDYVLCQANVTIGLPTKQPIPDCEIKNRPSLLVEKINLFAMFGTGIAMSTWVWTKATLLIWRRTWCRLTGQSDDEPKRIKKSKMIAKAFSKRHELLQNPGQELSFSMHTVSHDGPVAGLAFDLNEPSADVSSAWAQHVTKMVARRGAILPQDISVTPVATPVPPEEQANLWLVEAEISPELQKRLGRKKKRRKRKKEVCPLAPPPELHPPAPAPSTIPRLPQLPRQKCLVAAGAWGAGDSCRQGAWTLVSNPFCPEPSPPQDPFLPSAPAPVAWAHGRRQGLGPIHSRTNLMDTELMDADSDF
- experiment.notes: Smo radioligand competition binding assay
- condition.label: 0.05 μM test compound; read-out: Smo % inh. @ 0.05 μM
- Method: Smo Radioligand Competition Binding Assay Membranes were prepared from a stable cell line created in HEK293FlpIn-TetR cells (Invitrogen) using Flp recombinase-mediated insertion of the pSecTag-FRT/V5-His vector containing a cDNA encoding amino acids […] of human Smo fused to the murine Igk leader sequence to produce a cell surface expressed Smo 181-781 protein. […] LacZ-negative cells were analyzed for binding tritiated Smo antagonists. […]
# Lookup of reported inhibition at 0.05 µM keyed by entry
Just the number in %, nothing appended.

Solved cases below.
Query: Report inhibition at 0.05 µM under test system human Smo (Homo sapiens (Human), UniProt Q99835) for Cc1cnc(-c2cc(N3CCC(NC(=O)CN(C)C)CC3)ncc2Cl)c(C)c1 .
Result: 94.5

Query: Report inhibition at 0.05 µM under test system human Smo (Homo sapiens (Human), UniProt Q99835) for CC(=O)N1CCN(c2cc(-c3ncc(C)cc3C)c(Cl)cn2)CC1 .
Result: 85.6

Query: Report inhibition at 0.05 µM under test system human Smo (Homo sapiens (Human), UniProt Q99835) for CC(=O)NC1CCN(c2cc(-c3ncccc3C)c(Cl)cn2)CC1 .
Result: 70.6

Query: Report inhibition at 0.05 µM under test system human Smo (Homo sapiens (Human), UniProt Q99835) for Cc1cccnc1-c1cc(N2CCC(C(=O)NCCc3c[nH]cn3)CC2)ncc1Cl .
Result: 81.8

Query: Report inhibition at 0.05 µM under test system human Smo (Homo sapiens (Human), UniProt Q99835) for Cc1cnc(-c2c(Cl)cnc(N3CCC(NC(=O)CCS(C)(=O)=O)CC3)c2F)c(C)c1 .
Result: 101

Query: Report inhibition at 0.05 µM under test system human Smo (Homo sapiens (Human), UniProt Q99835) for CCS(=O)(=O)NC1CCN(c2ccc(Cl)c(-c3ccccn3)n2)CC1 .
Result: 92

Query: Report inhibition at 0.05 µM under test system human Smo (Homo sapiens (Human), UniProt Q99835) for NS(=O)(=O)CC1CCN(c2ccc(Cl)c(-c3ccccn3)n2)CC1 .
Result: 92.7

In the following, a different compound is considered.
Query: Report inhibition at 0.05 µM under test system human Smo (Homo sapiens (Human), UniProt Q99835) for CS(=O)(=O)CCC(=O)N1CCN(c2ccc(Cl)c(-c3ccccn3)n2)CC1 .
Result: 94.4

Data origin: patent US9056865B2
